assay: anti-His antibody binders, primary screen, artefact control for SMM control protein annotation, biochemical, small-molecule microarray, 635 nm fluorescence (AID 1128); details: anti-His Alexa647 antibody binding, higher = more signal;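 further: score merges feature fluorescence with signal-to-noise for each printed compound spot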
testReadout: composite z-score
Give the value as a plain number.

>>> df
                                   compound        testreadout  resultnumber
0  C[N+](C)(C)CCCC[C@@H]1NC(=O)[C@H]2C[C@@H](C(=O)NCCCCCN)[C@@H](c3cccc(OCCO)c3)N2C1=O  composite z-score          2.45
1  CC(=O)NCCCC[C@@H]1NC(=O)[C@@H]2C[C@H](C(=O)O)[C@H](c3cccc(OCCO)c3)N2C1=O  composite z-score             2

Reported composite z-score for CCN(CC)c1ccc(N2CC=CC34O[C@@H]5C=CCOC(=O)[C@@H]5[C@H]3C(=O)N(C(CO)C(C)C)[C@@H]4C2=O)cc1 (stereo partly drawn) : what is it? -1.59

* * *

assay: E. coli DRC41 culture turbidity changes, primary screen, E. coli filamentation inducer project, strain DRC41, OD650, 48 h (AID 1152);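 further: E. coli MC1000 strain DRC41 lacking acrAB efflux pump and sulA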; conditions: E. coli DRC41 (acrAB sulA), higher = more signal, called active from +8 up or from −8 down
testReadout: z-score
The answer should be written as a number, with no unit following it.

molecule	resultNumber
COCCOC(=O)N1C(=O)[C@@]2(c3ccccc31)[C@H](C(=O)Nc1nc3ccccc3s1)[C@H]1C(=O)O[C@H](c3ccccc3)[C@H](c3ccccc3)N1[C@@H]2c1ccc(O)cc1	2.37
C[N+](C)(C)CCCC[C@@H]1NC(=O)[C@H]2C[C@@H](C(=O)NCCCCCN)[C@@H](c3cccc(OCCO)c3)N2C1=O	2.36
COCCCNC(=O)[C@@]1(C)c2ccccc2C(=O)N(Cc2cc(F)cc(C(F)(F)F)c2)[C@H]1c1ccc(CO)cc1	1.7

Now consider a different molecule.
Return reported z-score; argument: `C=C(CCCC)/C(=C/C[C@H](OC(=O)c1ccncc1)c1ccc(CO)o1)c1cnc2ccccc2c1` 0.822

* * *

system: XIP peptide (Xip251-270) binding; experiment: small-molecule binders of XIP peptide, primary screen, biochemical, small-molecule microarray, fluorescence 635/667 nm, 0.1 µg/mL protein (AID 1182); conditions: fluorescent protein binding, 635 nm, higher = more signal, called active from +8 up or from −8 down
composite z-score values, listed per item
Give a plain numeric answer without units written out.

Record request: composite z-score value, item `COc1ccc([Si](C)(C)[C@H]2[C@H](CC(=O)N(CCO)Cc3ccccc3)O[C@@]3(C(=O)N(Cc4ccc(N5CCOC5=O)cc4)c4ccccc43)[C@@H]2C)cc1` 1.01

# get_value(readout='composite z-score', item= `C=C(COC)C(=O)CC[C@H](OC(=O)c1ccccc1-c1ccccc1C(=O)O)c1ccccc1OCCO` ) 1.43

What composite z-score value was documented for this compound, COC(=O)C1=CC(CCCO)=CC(C2CC2)N(Cc2cc3c(cc2Br)OCO3)C=C1C(=O)OC (configuration not stated) ? 1.68

* * *

Some compounds, each annotated with its measured z-score.
biological target: NADPH oxidase 2 (Homo sapiens); experiment: NOX2-dependent H2O2 signal modulators, primary screen, NOX inhibitor project, cell-based, HEK293-NOX2, PMA-stimulated, Amplex Red fluorescence (AID 1159); conditions: 45 min, higher = more signal, called active from +8 up or from −8 down
Please respond with just the number, no unit label.

As a guide, the following entries are already answered.
>>> print(df.to_string())
                                   compound  resultnumber
0  Cc1ccc(S[C@]2(C(=O)NCCN3CCOCC3)CC(=O)N(Cc3cc(C(F)(F)F)cc(C(F)(F)F)c3)[C@@H]2c2ccc(CO)cc2)cc1         0.538
1  CCN(CC)c1ccc(N2CC=CC34O[C@@H]5C=CCOC(=O)[C@@H]5[C@H]3C(=O)N(C(C)CO)[C@@H]4C2=O)cc1 (stereo partly drawn)         0.126

We next turn to a different compound, shown below.
Entry `CO[C@H]1O[C@H](CO)[C@@H](OC(=O)CCc2ccccc2)[C@@H]2OC(=O)[C@H](Cc3ccccc3)C/C=C/C[C@@H](Cc3ccccc3)C(=O)O[C@@H]12` , system NADPH oxidase 2 (Homo sapiens): what z-score was measured? 1.59
